assay: Reducing ability in DPPH assay; conditions: compound 100 μM, 60 min

>  <Compound>
CN1CCN(c2nc(N)c3nccnc3n2)CC1 [Compound 5a]

>  <Result Units>
%

>  <RA (%) 100μM 60 min>
14

$$$$
>  <Compound>
CN1CCN(c2nc(NCc3cccnc3)c3nccnc3n2)CC1 [Compound 18d]

>  <Result Units>
%

>  <RA (%) 100μM 60 min>
11

$$$$
>  <Compound>
OC1CCCN(c2nc(N3CCCC(O)C3)c3nccnc3n2)C1 (stereo not shown) [Compound 13]

>  <Result Units>
%

>  <RA (%) 100μM 60 min>
13

$$$$
>  <Compound>
CN1CCCN(c2nc(NCc3cccs3)c3nccnc3n2)CC1 [Compound 20b]

>  <Result Units>
%

>  <RA (%) 100μM 60 min>
19

$$$$
>  <Compound>
CN1CCN(c2nc(N3CCN(C)CC3)c3nccnc3n2)CC1 [Compound 9]

>  <Result Units>
%

>  <RA (%) 100μM 60 min>
14

$$$$
>  <Compound>
COc1ccccc1CNc1nc(N2CCN(C)CC2)nc2nccnc12 [Compound 18b]

>  <Result Units>
%

>  <RA (%) 100μM 60 min>
20

$$$$
>  <Compound>
CCN1CCN(c2nc(NCc3cccs3)c3nccnc3n2)CC1 [Compound 20a]

>  <Result Units>
%

>  <RA (%) 100μM 60 min>
11

$$$$
>  <Compound>
CN1CCN(c2nc(NCc3cccs3)c3nonc3n2)CC1 [Compound 23]

>  <Result Units>
%

>  <RA (%) 100μM 60 min>
18

$$$$
>  <Compound>
CCN1CCNc2nc(N3CCN(C)CC3)nc(N3CCN(C)CC3)c21 [Compound 10a]

>  <Result Units>
%

>  <RA (%) 100μM 60 min>
81

$$$$
>  <Compound>
CN1CCN(c2nc(NCc3cccs3)c3nccnc3n2)CC1 [Compound 18f]

>  <Result Units>
%

>  <RA (%) 100μM 60 min>
4

$$$$

---

Items are presented alongside their recorded melting point.

>  <Compound>
CN1CCCN(c2nc(NCc3cccs3)c3nccnc3n2)CC1 [Compound 20b]

>  <melting point>
130 to 131 °C

$$$$
>  <Compound>
Cc1nc2nc(N3CCN(C)CC3)nc(NCc3cccs3)c2nc1C [Compound 18g]

>  <melting point>
89 to 90 °C

$$$$
>  <Compound>
CN1CCN(c2nc(NCCc3ccccc3)c3nccnc3n2)CC1 [Compound 18c]

>  <melting point>
127 to 128 °C

$$$$
>  <Compound>
CCN1CCN(c2nc(NCc3cccs3)c3nccnc3n2)CC1 [Compound 20a]

>  <melting point>
148 to 149 °C

$$$$
>  <Compound>
CN1CCN(c2nc(N)c3nc(-c4ccccc4)c(-c4ccccc4)nc3n2)CC1

>  <melting point>
107 to 109 °C

$$$$
>  <Compound>
CN1CCN(c2nc(NCc3ccco3)c3nccnc3n2)CC1 [Compound 18e]

>  <melting point>
174 to 175 °C

$$$$
>  <Compound>
CCN1CCNc2nc(N3CCN(C)CC3)nc(N3CCN(C)CC3)c21 [Compound 10a]

>  <melting point>
139 to 140 °C

$$$$

---

assay: Competition with DMSO for hydroxyl radicals; conditions: compound at 100 µM, Fe3+/ascorbic acid, DMSO 33 mM

>  <Compound>
CCN1CCN(c2nc(NCc3cccs3)c3nccnc3n2)CC1 [Compound 20a]

>  <Hydroxyl radicals scavenged (%)>
92

$$$$
>  <Compound>
CN1CCN(c2nc(N3CCN(C)CC3)c3nccnc3n2)CC1

>  <Hydroxyl radicals scavenged (%)>
96

$$$$
>  <Compound>
OC1CCCN(c2nc(N3CCCC(O)C3)c3nccnc3n2)C1 (stereo not drawn)

>  <Hydroxyl radicals scavenged (%)>
95

$$$$
>  <Compound>
CN1CCN(c2nc(NCc3ccccc3)c3nccnc3n2)CC1 [Compound 18a]

>  <Hydroxyl radicals scavenged (%)>
91

$$$$
>  <Compound>
CN1CCN(c2nc(NCc3cccs3)c3nonc3n2)CC1

>  <Hydroxyl radicals scavenged (%)>
94

$$$$
>  <Compound>
CCN1CCN(CC)c2c1nc(N1CCN(C)CC1)nc2N1CCN(C)CC1 [Compound 10b]

>  <Hydroxyl radicals scavenged (%)>
98

$$$$
>  <Compound>
CCN1CCNc2nc(N3CCN(C)CC3)nc(N3CCN(C)CC3)c21 [Compound 10a]

>  <Hydroxyl radicals scavenged (%)>
96

$$$$
>  <Compound>
Cc1nc2nc(N3CCN(C)CC3)nc(N)c2nc1C

>  <Hydroxyl radicals scavenged (%)>
94

$$$$
>  <Compound>
Cc1c(C)c2c(c(C)c1O)CCC(C)(C(=O)O)O2 (stereo not drawn) [Trolox, reference compound]

>  <Hydroxyl radicals scavenged (%)>
73

$$$$
>  <Compound>
CN1CCN(c2nc(NCc3cccnc3)c3nccnc3n2)CC1 [Compound 18d]

>  <Hydroxyl radicals scavenged (%)>
95

$$$$
>  <Compound>
CN1CCN(c2nc(N)c3nccnc3n2)CC1

>  <Hydroxyl radicals scavenged (%)>
98

$$$$
>  <Compound>
CN1CCN(c2nc(NCCc3ccccc3)c3nccnc3n2)CC1 [Compound 18c]

>  <Hydroxyl radicals scavenged (%)>
97

$$$$
>  <Compound>
CN1CCCN(c2nc(NCc3cccs3)c3nccnc3n2)CC1 [Compound 20b]

>  <Hydroxyl radicals scavenged (%)>
94

$$$$
>  <Compound>
COc1ccccc1CNc1nc(N2CCN(C)CC2)nc2nccnc12 [Compound 18b]

>  <Hydroxyl radicals scavenged (%)>
90

$$$$
>  <Compound>
Cc1nc2nc(N3CCN(C)CC3)nc(NCc3cccs3)c2nc1C [Compound 18g]

>  <Hydroxyl radicals scavenged (%)>
100

$$$$
>  <Compound>
CN1CCN(c2nc(NCc3ccco3)c3nccnc3n2)CC1 [Compound 18e]

>  <Hydroxyl radicals scavenged (%)>
94

$$$$
>  <Compound>
CN1CCN(c2nc(N)c3nc(-c4ccccc4)c(-c4ccccc4)nc3n2)CC1

>  <Hydroxyl radicals scavenged (%)>
100

$$$$
>  <Compound>
CN1CCN(c2nc(NCc3cccs3)c3nccnc3n2)CC1 [Compound 18f]

>  <Hydroxyl radicals scavenged (%)>
96

$$$$
